experimental.system: T1, full length human DLL4 (human, UniProt Q9NR61 27-685)
T1 construct: whole, on cells; also called native DLL4 expressed in HEK293 cells
T1 sequence (Q9NR61 27-685): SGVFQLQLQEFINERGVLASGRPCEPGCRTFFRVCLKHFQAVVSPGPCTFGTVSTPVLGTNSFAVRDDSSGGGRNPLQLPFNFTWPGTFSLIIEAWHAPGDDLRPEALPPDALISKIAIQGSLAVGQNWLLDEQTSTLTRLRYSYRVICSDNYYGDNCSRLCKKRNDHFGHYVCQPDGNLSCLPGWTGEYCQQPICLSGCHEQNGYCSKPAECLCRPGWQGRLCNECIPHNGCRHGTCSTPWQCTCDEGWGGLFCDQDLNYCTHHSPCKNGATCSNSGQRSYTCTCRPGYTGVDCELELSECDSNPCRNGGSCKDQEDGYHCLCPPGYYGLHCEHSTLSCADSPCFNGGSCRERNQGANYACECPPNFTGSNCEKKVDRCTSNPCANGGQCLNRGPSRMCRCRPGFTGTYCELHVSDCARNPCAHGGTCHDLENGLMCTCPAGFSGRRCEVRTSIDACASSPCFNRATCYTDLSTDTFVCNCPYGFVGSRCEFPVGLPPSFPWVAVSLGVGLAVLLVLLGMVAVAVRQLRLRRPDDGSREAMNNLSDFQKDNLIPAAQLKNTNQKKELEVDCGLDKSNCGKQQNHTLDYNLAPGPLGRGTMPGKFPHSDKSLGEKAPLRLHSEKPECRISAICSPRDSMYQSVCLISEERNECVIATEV
test: FACS binding, HEK293 cells with human DLL4
measure: EC50 (µg/mL)
Give just the number in µg/mL; leave the unit off.

Here are 2 binders together with their reported answers.
binder	EC50 / µg/mL
9G8 IgG2 VH wt/VL S7P (antibody, V domains shown, IgG2) VH: QLQLQESGPGLVKPSETLSLSCTVSGGSISSSSSYWGLIRQPPGKGLEWIGSIYYSGSTYYSPSLKSRVSISVDTSKNQFSLKLSSVTAADTAVYFCARQGYGGHPDVFDIWGQGTMVTVSS VL: SSELTQPPSVSVSPGQTARITCSGDKLGDVYVCWYQQKTGQSPVLVIYEDTKRPSGIPERFSGSNSGNTATLTISGTQVMDEADYYCQAWDSTTAVIFGGGTKLTVL	0.082
9G8 IgG2 VH L38W/VL S7P (antibody, V domains shown, IgG2) VH: QLQLQESGPGLVKPSETLSLSCTVSGGSISSSSSYWGWIRQPPGKGLEWIGSIYYSGSTYYSPSLKSRVSISVDTSKNQFSLKLSSVTAADTAVYFCARQGYGGHPDVFDIWGQGTMVTVSS VL: SSELTQPPSVSVSPGQTARITCSGDKLGDVYVCWYQQKTGQSPVLVIYEDTKRPSGIPERFSGSNSGNTATLTISGTQVMDEADYYCQAWDSTTAVIFGGGTKLTVL	0.074

We next turn to a different binder, shown below.
[in] Bench note: what EC50 did 9G8 IgG2 VH wt/VL wt (antibody, V domains shown, IgG2, transiently expressed) VH: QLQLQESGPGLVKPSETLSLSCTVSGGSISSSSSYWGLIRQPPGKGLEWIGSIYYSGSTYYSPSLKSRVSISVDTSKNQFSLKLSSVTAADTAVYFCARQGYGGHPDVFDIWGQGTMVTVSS VL: SSELTQSPSVSVSPGQTARITCSGDKLGDVYVCWYQQKTGQSPVLVIYEDTKRPSGIPERFSGSNSGNTATLTISGTQVMDEADYYCQAWDSTTAVIFGGGTKLTVL show?
[out] 0.071
